Data origin: patent US20250230155A1

- measured.on: human mAChR M4 (Homo sapiens)
- Construct: expressed in transfected cells
- Sequence (P08173 whole entry): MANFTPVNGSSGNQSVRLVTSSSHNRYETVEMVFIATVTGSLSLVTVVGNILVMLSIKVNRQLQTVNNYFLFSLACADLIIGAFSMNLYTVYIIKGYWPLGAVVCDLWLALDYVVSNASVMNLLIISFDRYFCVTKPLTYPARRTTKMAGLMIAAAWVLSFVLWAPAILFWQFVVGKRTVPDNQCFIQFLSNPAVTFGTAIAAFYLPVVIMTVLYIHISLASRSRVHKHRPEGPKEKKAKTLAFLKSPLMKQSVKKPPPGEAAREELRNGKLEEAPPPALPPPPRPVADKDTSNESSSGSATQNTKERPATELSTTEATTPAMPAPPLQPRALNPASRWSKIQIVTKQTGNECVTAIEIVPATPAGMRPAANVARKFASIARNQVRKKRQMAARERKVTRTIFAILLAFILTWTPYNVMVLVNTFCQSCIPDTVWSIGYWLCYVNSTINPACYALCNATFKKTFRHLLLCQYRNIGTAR
- assay.name: mAChR M4 cell-based functional assay (calcium mobilization, CHO-K1 hM4-Gqi5 cells)
- particulars: positive allosteric modulator activity, increase in the EC20 acetylcholine response, CHO-K1 hM4-Gqi5 cells; read-out: Human M4 EC50
pEC50: −log10 of the molar value.
Entry class follows pEC50: low (below 6), middle (6 to below 7), high (7 or more)

Reference set, count: 2
| compound | label.class |
| --- | --- |
| Cc1cnc2c(c1)CN(c1nnc(C(=O)NCc3csc4ccccc34)c(C)c1C)CC2 | middle |
| COC(=O)c1cnc(N2CCc3ncccc3C2)c(C)c1 | low |

Lookup: State the class of the compound shown: "Cc1cc(C(=O)NC2CN(CC(F)(F)F)C2)nnc1N1CCc2ncc(N3CCCn4nccc43)cc2C1"
Found: high

Lookup: "Cc1cc(C(=O)NCc2nccs2)cnc1N1CCc2ncc(-c3ccn(C)n3)cc2C1" , same question.
Found: middle

Lookup: "Cc1cc(C(=O)NC2(c3cccnc3)CC2)nnc1N1CCc2ncc(N3CCCn4nccc43)cc2C1" , same question.
Found: high

Lookup: "COC(=O)c1ccc(CNC(=O)c2cnc(N3CCc4ncccc4C3)c(C)c2)cn1" , same question.
Found: low

Lookup: "Cc1cc(C(=O)NCc2ccc3ncccc3c2)cnc1N1CCc2ncccc2C1" , same question.
Found: low

Lookup: "Cc1cc(C(=O)N2CC(C)(F)C2)nnc1N1CCc2ncc(-n3cccn3)cc2C1" , same question.
Found: middle

Lookup: Cc1cc(C(=O)NCC2CCCCO2)cnc1N1CCc2ncccc2C1 (stereo not shown) , same question.
Found: low

Lookup: "Cc1cc(C(=O)NCc2ccncc2)cnc1N1CCc2ncc(C(F)(F)F)cc2C1" , same question.
Found: middle

Lookup: "[2H]C1([2H])Cc2ncc(-c3ccnn3C)cc2C([2H])([2H])N1c1nnc(C#N)cc1C" , same question.
Found: low

Lookup: "CNC(=O)c1ccc(CNC(=O)c2cnc(N3CCc4ncccc4C3)c(C)c2)cc1" , same question.
Found: low

Lookup: "Cc1c(Cl)nc(C(F)(F)F)nc1N1CCc2ncc(N3CCCn4nccc43)cc2C1" , same question.
Found: middle

Lookup: "Cc1cc(C#N)cnc1N1CCc2ncc(-c3cnn(C)c3)cc2C1" , same question.
Found: middle

Lookup: "Cc1cc(C#N)cnc1N1CCc2ncc(Nc3ncccc3F)cc2C1" , same question.
Found: middle
